Assay: Effective permeability of the compound at 10 uM after 5 hrs by PAMPA
Type: ADME
Settings: read-out: Peff
measurement_kind: Papp at 5 h, 10 µM
I'd appreciate it if you wrote the number followed by its unit.

Past entries and their recorded results:
Cc1ccc(/C(=C(\CCCO)c2ccccc2)c2ccc(N3CCNCC3)cc2)cc1.Cl.Cl: 3.61 ×10⁻⁶ cm/s
CC(C)N1CCN(c2ccc(/C(=C(/CCCO)c3ccccc3)c3cccc(O)c3)cc2)CC1.Cl.Cl: 1.29 ×10⁻⁶ cm/s
CC(C)N1CCN(c2ccc(/C(=C(/CCCO)c3ccccc3)c3ccc(Br)cc3)cc2)CC1.Cl.Cl: 0.37 ×10⁻⁶ cm/s

// Papp at 5 h, 10 µM lookup, molecule = CCN1CCN(c2ccc(/C(=C(/CCCO)c3ccccc3)c3ccc(C)cc3)cc2)CC1.Cl.Cl , result: 4.47 ×10⁻⁶ cm/s

Sample Cc1ccc(/C(=C(\CCCO)c2ccccc2)c2ccc(N3CCN(C(C)C)CC3)cc2)cc1.Cl.Cl ; Papp at 5 h, 10 µM observed: 2.09 ×10⁻⁶ cm/s

Value of measured Papp at 5 h, 10 µM for the entry CC(C)N1CCN(c2ccc(/C(=C(/CCCO)c3ccccc3)c3ccc(O)cc3)cc2)CC1.Cl.Cl : 0.46 ×10⁻⁶ cm/s

Lab note: Cc1ccc(/C(=C(\CCCO)c2ccccc2)c2ccc(N3CCN(C)CC3)cc2)cc1.Cl.Cl gave Papp at 5 h, 10 µM of 4.84 ×10⁻⁶ cm/s

----------
Target: UniProtKB P03372
Sequence (P03372 whole entry): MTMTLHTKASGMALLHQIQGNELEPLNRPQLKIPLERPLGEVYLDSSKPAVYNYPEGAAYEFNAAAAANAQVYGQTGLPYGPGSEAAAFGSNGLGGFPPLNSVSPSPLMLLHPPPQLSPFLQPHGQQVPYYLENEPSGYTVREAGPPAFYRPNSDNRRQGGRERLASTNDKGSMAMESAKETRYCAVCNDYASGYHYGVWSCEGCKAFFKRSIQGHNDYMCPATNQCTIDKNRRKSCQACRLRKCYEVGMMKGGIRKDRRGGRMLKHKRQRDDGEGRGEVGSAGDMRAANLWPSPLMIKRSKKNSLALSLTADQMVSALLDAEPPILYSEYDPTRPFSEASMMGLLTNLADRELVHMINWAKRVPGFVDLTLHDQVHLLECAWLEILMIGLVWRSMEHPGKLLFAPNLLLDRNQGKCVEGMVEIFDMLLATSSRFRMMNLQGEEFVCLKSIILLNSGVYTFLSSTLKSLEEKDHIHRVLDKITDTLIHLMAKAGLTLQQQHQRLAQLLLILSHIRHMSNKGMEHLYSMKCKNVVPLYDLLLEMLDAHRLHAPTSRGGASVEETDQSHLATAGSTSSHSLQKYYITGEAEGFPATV
measurement_kind: IC50

Study these solved cases before continuing.
CC(C)N1CCN(c2ccc(/C(=C(/CCCO)c3ccccc3)c3ccc(Br)cc3)cc2)CC1.Cl.Cl: > 10 µM
CCN1CCN(c2ccc(/C(=C(/CCCO)c3ccccc3)c3ccc(O)cc3)cc2)CC1: 1.14 µM

The recorded IC50 for CN1CCN(c2ccc(/C(=C(/CCCO)c3ccccc3)c3ccc(Br)cc3)cc2)CC1 is > 10 µM

Lookup result for OCCC/C(=C(\c1ccc(O)cc1)c1ccc(N2CCN(C3CCC3)CC2)cc1)c1ccccc1 ; measured IC50: 1.66 µM

Summary for this compound, OCCC/C(=C(\c1ccc(O)cc1)c1ccc(N2CCN(C3CCCCC3)CC2)cc1)c1ccccc1 : IC50 is 2.12 µM

Just so you know, measured IC50 for Cc1ccc(/C(=C(\CCCO)c2ccccc2)c2ccc(N3CCN(C)CC3)cc2)cc1.Cl.Cl came out at > 10 µM

compound CC(C)N1CCN(c2ccc(/C(=C(/CCCO)c3ccccc3)c3cccc(Br)c3)cc2)CC1 , IC50 observed: > 10 µM

Recorded IC50 (compound OCCC/C(=C(\c1ccc(Br)cc1)c1ccc(N2CCNCC2)cc1)c1ccccc1 ): > 10 µM

The value of IC50 measured for the compound Cc1ccc(/C(=C(\CCCO)c2ccccc2)c2ccc(N3CCNCC3)cc2)cc1.Cl.Cl turned out to be > 10 µM
